tgt: Lysosomal acid glucosylceramidase (Homo sapiens)
test: Glucocerebrosidase-p2 (AID 348); also: potency is read from the fitted curve at half-maximal effect
statedConditions: purified GBA, blue fluorogenic substrate, 40 min
Activity calls are given as the source filed them. Rule as the data show it: active = potency below about 10 µM; inactive = the rest.
measuredAttribute: Potency

// worked examples, Potency included
| smilesString | tgt | Potency |
| --- | --- | --- |
| Br/C(=N\Nc1nn[nH]n1)c1ccncc1 | Lysosomal acid glucosylceramidase (Homo sapiens) | > 11.4 µM (inactive) |
| CC(=O)N[C@H](Cc1ccc(O)cc1)C(=O)O | Lysosomal acid glucosylceramidase (Homo sapiens) | > 11.4 µM (inactive) |
| COc1ccc2[nH]c3cc4c(=O)c5cc(OC)ccc5[nH]c4cc3c(=O)c2c1 | Lysosomal acid glucosylceramidase (Homo sapiens) | > 11.4 µM (inactive) |
| O=C(Nc1nn[nH]n1)c1nc(-c2ccccc2)cc(=O)[nH]1 | Lysosomal acid glucosylceramidase (Homo sapiens) | > 11.4 µM (inactive) |

Prompt: Fill blank: measured Potency of the molecule "O=C1C(Cl)=C(Sc2nnc3c4ccccc4c4ccccc4c3n2)C(=O)c2ccccc21" is ____.
Completion: > 11.4 µM (inactive)

Prompt: Fill blank: measured Potency of the molecule "COc1ccc(CSC2=C(C#N)C(=O)NC3(CCCCC3)S2)cc1" is ____.
Completion: > 11.4 µM (inactive)

---

tgt: Cytochrome P450 2D6 (Homo sapiens) (UniProt P10635)
Sequence (P10635 whole entry, looked up): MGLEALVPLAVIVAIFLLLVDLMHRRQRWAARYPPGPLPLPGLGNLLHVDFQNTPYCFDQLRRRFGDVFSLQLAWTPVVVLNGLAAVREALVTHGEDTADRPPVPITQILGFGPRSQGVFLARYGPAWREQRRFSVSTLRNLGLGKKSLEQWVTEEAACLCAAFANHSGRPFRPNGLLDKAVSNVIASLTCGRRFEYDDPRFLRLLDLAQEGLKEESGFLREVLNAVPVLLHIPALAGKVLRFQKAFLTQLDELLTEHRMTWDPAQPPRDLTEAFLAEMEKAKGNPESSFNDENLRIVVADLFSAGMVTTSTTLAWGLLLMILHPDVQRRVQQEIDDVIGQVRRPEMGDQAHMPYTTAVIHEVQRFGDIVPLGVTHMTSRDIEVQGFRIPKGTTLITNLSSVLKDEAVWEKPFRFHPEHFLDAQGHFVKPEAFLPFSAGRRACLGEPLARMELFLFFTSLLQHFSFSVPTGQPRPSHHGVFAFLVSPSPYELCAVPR
test: qHTS Assay for Inhibitors and Substrates of Cytochrome P450 2D6 (AID 891); also: nearly all actives have a fitted effect of over 60% in size
statedConditions: recombinant CYP2D6, luciferin-ME EGE luminescence; series mostly up to 11.4 µM
Inconclusive results are not listed. Active and inactive are the calls of the source. Calls follow the shape of the dose curve; as a rule, active = well fitted inhibition curve with a large enough effect; inconclusive = small, poorly fitted or top-dose-only effect; inactive = no such curve, though single readings can be large or run the other way.
The reply should be one of these categories: active, inactive

Please review the following examples before continuing.
| compound | label |
| --- | --- |
| S=C(S)NCCCn1ccnc1 | active |
| c1ccc(CNCCN2CCNCC2)nc1 | inactive |
| O=C(O)NCc1ccccc1 (tested in a mixture with another compound) | active |
| COc1ccc2cc1Oc1ccc(cc1)C[C@H]1c3cc(c(OC)cc3CCN1C)Oc1c(OC)c(OC)cc3c1[C@@H](C2)N(C)CC3 | inactive |
| O=C(O)CCC(=O)c1ccc2ccc3cccc4ccc1c2c34 | inactive |

Prompt: Would you mind telling me which call this test gave "CC(C)(C)c1ccc(O)c(CN(Cc2c(O)ccc3ccccc23)C2CCCCC2)c1" ?
Completion: active

Prompt: Would you mind telling me which call this test gave "Oc1c(Br)cc(CN(Cc2cc(Br)c(O)c(Br)c2)C2CCCCC2)cc1Br" ?
Completion: active

Prompt: Would you mind telling me which call this test gave "Clc1ccc2c(NCCNC3CCCCC3)ccnc2c1" ?
Completion: active

Prompt: Would you mind telling me which call this test gave "COc1ccc2c(c1)N(CC[C@H]1CCCCN1C)c1ccccc1S2" ?
Completion: active

Prompt: Would you mind telling me which call this test gave "Clc1ccc2c(N3CCC(CCC4CCN(c5ncnc6cc(Cl)ccc56)CC4)CC3)ncnc2c1" ?
Completion: active

Prompt: Would you mind telling me which call this test gave "NC(N)=NCCSSCCN=C(N)N" ?
Completion: inactive

---

test: AP1 Signaling Pathway (AID 357);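 also: ME-180 reporter cells stimulated with EGF at its EC50 level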
statedConditions: ME-180 (cervical carcinoma) AP-1-bla reporter, EGF-induced, beta-lactamase ratio, 5 h; at 7.69 µM (top of the series) unless noted
Results filed as inconclusive are left out. Calls of active or inactive are those of the source. The call rests on the fitted dose curve; in most records, active means well fitted curve in either direction with a large enough effect (not every such curve was filed as active); inconclusive means small, poorly fitted or top-dose-only effect, or another doubt; inactive means flat fitted curve, though single readings scatter.
The reply should be one of these categories: true = active, false = inactive

| smilesString | label |
| --- | --- |
| Nc1nc(SC/C=C\c2ccccc2)c2[nH]cnc2n1 | false |
| O=C(O)c1cc(=O)[nH]c(=S)[nH]1 | false |
| C/C(=N/NC(=O)c1ccncc1)c1ccccc1Cl | false |
| CCCC(c1cc(C(C)(C)C)c(O)cc1C)c1cc(C(C)(C)C)c(O)cc1C | false |
| O=C(O)C[C@H](Cc1ccccc1)C(=O)O | false |
| O=C(O)CNCCc1ccccc1 | false |

Prompt: Would you mind telling me which call this test gave "O=C(NNC(=O)c1ccncc1)c1ccncc1" ?
Completion: false

Prompt: Would you mind telling me which call this test gave "COc1ccc(-c2nc3cnc(N4CCNCC4)nc3n(Cc3cccc(OC)c3)c2=O)cc1" ?
Completion: true

Prompt: Would you mind telling me which call this test gave "NC(Cc1ccccc1)(C(=O)O)C(=O)O" ?
Completion: false

Prompt: Would you mind telling me which call this test gave "Nc1ncnc2c1ncn2[C@H]1O[C@@H](C(=O)O)[C@@H](O)[C@H]1O" ?
Completion: false

Prompt: Would you mind telling me which call this test gave "O=C(O)CSc1n[nH]c(=O)[nH]c1=O" ?
Completion: false

Prompt: Would you mind telling me which call this test gave "O=C(O)c1cc(=O)[nH]c(SCc2ccccc2)n1" ?
Completion: false

Prompt: Would you mind telling me which call this test gave "CC1=CC(=O)CC(C)(C)[C@]1(O)/C=C\C(C)=C\C(=O)O" ?
Completion: false

Prompt: Would you mind telling me which call this test gave "CC(C)=C[C@H]1[C@@H](COC(=O)c2ccccc2Cl)C1(C)C" ?
Completion: false
